# system: furin, P09958;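 further: purified furin at 1:10 enzyme:substrate in 50 mM HEPES pH 7.5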
# Sequence (P09958 whole entry): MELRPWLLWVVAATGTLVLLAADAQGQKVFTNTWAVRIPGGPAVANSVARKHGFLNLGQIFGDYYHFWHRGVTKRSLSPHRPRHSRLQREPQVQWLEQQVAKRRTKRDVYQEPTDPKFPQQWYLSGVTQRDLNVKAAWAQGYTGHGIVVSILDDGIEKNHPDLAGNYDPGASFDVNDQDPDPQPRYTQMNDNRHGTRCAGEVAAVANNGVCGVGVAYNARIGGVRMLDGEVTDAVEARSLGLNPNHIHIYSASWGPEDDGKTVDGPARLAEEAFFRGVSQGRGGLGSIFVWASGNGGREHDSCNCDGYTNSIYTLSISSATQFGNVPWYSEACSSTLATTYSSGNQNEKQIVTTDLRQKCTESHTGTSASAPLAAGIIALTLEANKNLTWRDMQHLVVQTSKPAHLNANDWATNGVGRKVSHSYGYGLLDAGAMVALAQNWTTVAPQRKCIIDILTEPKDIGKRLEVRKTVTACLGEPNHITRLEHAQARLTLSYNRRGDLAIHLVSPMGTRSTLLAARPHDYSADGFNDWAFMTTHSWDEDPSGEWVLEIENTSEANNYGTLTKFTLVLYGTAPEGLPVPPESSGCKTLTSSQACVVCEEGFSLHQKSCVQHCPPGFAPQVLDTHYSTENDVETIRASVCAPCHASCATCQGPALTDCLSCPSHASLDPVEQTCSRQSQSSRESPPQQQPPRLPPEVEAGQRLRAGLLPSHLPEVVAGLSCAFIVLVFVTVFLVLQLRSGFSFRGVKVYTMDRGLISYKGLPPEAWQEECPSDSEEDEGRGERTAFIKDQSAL
# test description: furin cleavage Z-score vs untreated control; higher = more cleavage, active = 3.5 or more, inactive = 1 or less, 8 variable residues between constant flanks
# condition details: 7.5 min
The other results are listed elsewhere or left out. No count for the full screen is at hand.
Choose one outcome from this list and give only that: true (1) for active, false (0) for inactive

## Input Would you mind telling me which call this test gave CARWRRSKRAAGNASASA [FS-959] ?
## Output true (1)

## Input Would you mind telling me which call this test gave CACFRRSKRAAGNASASA [FS-1514] ?
## Output true (1)

## Input Would you mind telling me which call this test gave CAICESAGVQAGNASASA [HC1532] ?
## Output false (0)

## Input Would you mind telling me which call this test gave CAGSPPSVASAGNASASA [HC1257] ?
## Output false (0)

## Input Would you mind telling me which call this test gave CARWRRTKGAAGNASASA [FS-1873] ?
## Output false (0)

## Input Would you mind telling me which call this test gave CAGSSRRFRAAGNASASA [FS-1003] ?
## Output false (0)

## Input Would you mind telling me which call this test gave CAMVCCSMSYAGNASASA [HC1986] ?
## Output false (0)
